Entries and their measured pIC50 follow.
Molecular target: PRMT5/MEP50 (Homo sapiens (Human))
Sequence (O14744 other isoform, or with tags, fused parts or gaps): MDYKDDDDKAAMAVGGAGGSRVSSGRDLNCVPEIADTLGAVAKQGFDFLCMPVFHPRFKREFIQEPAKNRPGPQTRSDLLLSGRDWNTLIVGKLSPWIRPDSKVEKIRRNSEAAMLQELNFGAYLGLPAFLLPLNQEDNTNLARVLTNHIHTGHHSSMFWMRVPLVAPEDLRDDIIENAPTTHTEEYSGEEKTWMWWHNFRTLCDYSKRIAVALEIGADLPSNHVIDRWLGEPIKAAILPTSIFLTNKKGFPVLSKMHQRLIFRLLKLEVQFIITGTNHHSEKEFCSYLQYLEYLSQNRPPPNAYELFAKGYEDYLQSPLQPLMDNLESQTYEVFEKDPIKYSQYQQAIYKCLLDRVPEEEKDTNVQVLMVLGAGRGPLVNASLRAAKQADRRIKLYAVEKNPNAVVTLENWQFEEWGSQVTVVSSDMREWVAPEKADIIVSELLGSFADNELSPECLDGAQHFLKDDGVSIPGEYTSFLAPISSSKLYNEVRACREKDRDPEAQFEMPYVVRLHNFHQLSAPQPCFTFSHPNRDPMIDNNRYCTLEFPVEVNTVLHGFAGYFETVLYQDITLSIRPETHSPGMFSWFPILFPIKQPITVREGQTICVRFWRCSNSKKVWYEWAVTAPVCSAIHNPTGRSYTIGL
Sequence (Q9BQA1 other isoform, or with tags, fused parts or gaps partner): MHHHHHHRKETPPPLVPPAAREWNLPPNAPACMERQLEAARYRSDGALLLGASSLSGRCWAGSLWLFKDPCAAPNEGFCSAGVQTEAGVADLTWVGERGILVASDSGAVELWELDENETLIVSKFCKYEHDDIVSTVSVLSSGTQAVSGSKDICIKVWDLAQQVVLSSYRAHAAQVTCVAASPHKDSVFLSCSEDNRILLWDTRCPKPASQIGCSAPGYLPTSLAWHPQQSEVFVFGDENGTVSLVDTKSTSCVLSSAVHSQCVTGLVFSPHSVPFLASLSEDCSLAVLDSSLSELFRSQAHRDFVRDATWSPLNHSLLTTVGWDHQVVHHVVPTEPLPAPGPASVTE
Experiment: PRMT5 Biochemical Assay (PRMT5/MEP50 enzyme assay on peptide substrate, 3H-SAM Flashplate)
Conditions: PRMT5 biochemical assay
pIC50: −log10 of the molar value.

See these solved cases before continuing.
compound	testSystem	pIC50
CCc1nc(NC2CNC2)cc(C(=O)NC[C@H](O)CN2CCc3ccccc3C2)n1	PRMT5/MEP50 (Homo sapiens (Human))	> 7.00
O=C(NC[C@H](O)CN1CCc2ccccc2C1)c1cc(N[C@H]2C[C@@H](C(=O)N3CCCCC3)C2)ncn1	PRMT5/MEP50 (Homo sapiens (Human))	> 7.00
CC(=O)N1CCC[C@@H](Nc2cc(C(=O)NC[C@H](O)CN3CCc4ccccc4C3)ncn2)C1	PRMT5/MEP50 (Homo sapiens (Human))	> 7.00

So for CC(=O)N1CCC(Nc2cc(C(=O)NCC(O)C(C)N3CCc4ccccc4C3)ccn2)CC1 (centres unmarked) , the logged pIC50 turned out to be 6.00 to 7.00

According to the records, this compound O=C(NCC(F)CN1CCc2ccccc2C1)c1cc(NC2COC2)ncn1 (centres unmarked) displays pIC50 of 5.00 to 6.00

Measured pIC50, `O=C(NC[C@H](O)CN1CCc2ccccc2C1)c1cnnc(NC2CCOCC2)c1` : > 7.00

In plain terms, `O=C(NC[C@H](O)CN1CCc2ccccc2C1)c1cnnc(OC2CCN(CC(F)(F)F)CC2)c1` has a documented pIC50 of 6.00 to 7.00

Just so you know, measured pIC50 for `CCS(=O)(=O)CCN1CCC(Nc2cc(C(=O)NC[C@H](O)CN3CCc4ccccc4C3)ncn2)CC1` came out at > 7.00

###

Target: PRMT5/MEP50 (Homo sapiens (Human))
Assay: PRMT5 Biochemical Assay (PRMT5/MEP50 enzyme assay on peptide substrate, 3H-SAM Flashplate)
Conditions: PRMT5 biochemical assay
Listed below: IC50 values for each entry.

compound	testSystem	measuredMetric	valueObserved
CC(C)c1nc(NC2COC2)cc(C(=O)NC[C@H](O)CN2CCc3ccccc3C2)n1	PRMT5/MEP50 (Homo sapiens (Human))	IC50	< 100 nM
CC(=O)N1CCC(Nc2cc(C(=O)NC[C@H](O)CN3CCc4ccccc4C3C)ccn2)CC1 (stereo partly shown)	PRMT5/MEP50 (Homo sapiens (Human))	IC50	< 100 nM
CCN(C)[C@H]1CC[C@H](Nc2cc(C(=O)NC[C@H](O)CN3CCc4ccccc4C3)ncn2)CC1	PRMT5/MEP50 (Homo sapiens (Human))	IC50	< 100 nM
CNC(=O)[C@H]1CC[C@@H](Nc2cc(C(=O)NC[C@H](O)CN3CCc4ccccc4C3)ncn2)CC1	PRMT5/MEP50 (Homo sapiens (Human))	IC50	< 100 nM
O=C(NC[C@H](O)CN1CCc2ccccc2C1)c1cc(NC2CCN(C(=O)C3CCC3)CC2)ncn1	PRMT5/MEP50 (Homo sapiens (Human))	IC50	< 100 nM

Recorded result, CCS(=O)(=O)CCNCC1CN2C=NC(C(=O)NC[C@H](O)CN3CCc4ccccc4C3)=CC2=N1 (stereo partly shown) , IC50: 101 to 1000 nM

Noted for `CN1CCC(Oc2cc(C(=O)NC[C@H](O)CN3CCc4ccccc4C3)cnn2)CC1` : its IC50 reads < 100 nM

IC50 for `CC(=O)N1CCC(Nc2cc(C(=O)NC[C@H](O)CN3CCc4ccccc4C3)nc(N3CCN(C(C)=O)CC3)c2)CC1` is < 100 nM

Data provenance is patent US10307413B2.
